System Under Test: rat GIP receptor (Rattus norvegicus)
Construct: expressed in transfected cells; host or cells: L cells (LGIPR2), also carrying a VIP-promoter/lacZ cAMP reporter
Sequence (P43219 19-455): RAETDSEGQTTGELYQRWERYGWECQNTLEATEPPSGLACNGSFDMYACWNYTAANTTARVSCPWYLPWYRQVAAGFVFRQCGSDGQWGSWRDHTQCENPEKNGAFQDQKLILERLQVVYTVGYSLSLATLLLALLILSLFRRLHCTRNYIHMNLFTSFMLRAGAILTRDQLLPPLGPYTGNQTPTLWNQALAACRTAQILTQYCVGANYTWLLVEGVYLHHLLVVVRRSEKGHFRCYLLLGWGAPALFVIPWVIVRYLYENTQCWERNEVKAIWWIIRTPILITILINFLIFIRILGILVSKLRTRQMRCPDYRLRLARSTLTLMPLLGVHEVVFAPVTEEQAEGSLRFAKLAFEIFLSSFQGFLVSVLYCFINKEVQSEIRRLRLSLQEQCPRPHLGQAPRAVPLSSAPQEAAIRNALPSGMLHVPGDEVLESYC
Assay Text: Inhibition of GIP (1–42)-stimulated cAMP-dependent β-galactosidase production in LGIPR2 cells
Assay type: cell-based
Where no end group is shown, it is not given here.
Outcome Measure: pIC50
Just the number, please; pIC50 means minus log10 of the concentration in mol/L.

Qu. pIC50 of ISDYSIAMDKIRQQDFVNWLLAQK-NH2 [ANTGIP, GIP (7–30)-NH2] on rat GIP receptor (Rattus norvegicus)?
Ans. 7.00
